Field: IC50. System: Serine/threonine-protein kinase ATR (Homo sapiens, UniProt Q13535). Provenance: assorted publications.
Sequence (Q13535 whole entry): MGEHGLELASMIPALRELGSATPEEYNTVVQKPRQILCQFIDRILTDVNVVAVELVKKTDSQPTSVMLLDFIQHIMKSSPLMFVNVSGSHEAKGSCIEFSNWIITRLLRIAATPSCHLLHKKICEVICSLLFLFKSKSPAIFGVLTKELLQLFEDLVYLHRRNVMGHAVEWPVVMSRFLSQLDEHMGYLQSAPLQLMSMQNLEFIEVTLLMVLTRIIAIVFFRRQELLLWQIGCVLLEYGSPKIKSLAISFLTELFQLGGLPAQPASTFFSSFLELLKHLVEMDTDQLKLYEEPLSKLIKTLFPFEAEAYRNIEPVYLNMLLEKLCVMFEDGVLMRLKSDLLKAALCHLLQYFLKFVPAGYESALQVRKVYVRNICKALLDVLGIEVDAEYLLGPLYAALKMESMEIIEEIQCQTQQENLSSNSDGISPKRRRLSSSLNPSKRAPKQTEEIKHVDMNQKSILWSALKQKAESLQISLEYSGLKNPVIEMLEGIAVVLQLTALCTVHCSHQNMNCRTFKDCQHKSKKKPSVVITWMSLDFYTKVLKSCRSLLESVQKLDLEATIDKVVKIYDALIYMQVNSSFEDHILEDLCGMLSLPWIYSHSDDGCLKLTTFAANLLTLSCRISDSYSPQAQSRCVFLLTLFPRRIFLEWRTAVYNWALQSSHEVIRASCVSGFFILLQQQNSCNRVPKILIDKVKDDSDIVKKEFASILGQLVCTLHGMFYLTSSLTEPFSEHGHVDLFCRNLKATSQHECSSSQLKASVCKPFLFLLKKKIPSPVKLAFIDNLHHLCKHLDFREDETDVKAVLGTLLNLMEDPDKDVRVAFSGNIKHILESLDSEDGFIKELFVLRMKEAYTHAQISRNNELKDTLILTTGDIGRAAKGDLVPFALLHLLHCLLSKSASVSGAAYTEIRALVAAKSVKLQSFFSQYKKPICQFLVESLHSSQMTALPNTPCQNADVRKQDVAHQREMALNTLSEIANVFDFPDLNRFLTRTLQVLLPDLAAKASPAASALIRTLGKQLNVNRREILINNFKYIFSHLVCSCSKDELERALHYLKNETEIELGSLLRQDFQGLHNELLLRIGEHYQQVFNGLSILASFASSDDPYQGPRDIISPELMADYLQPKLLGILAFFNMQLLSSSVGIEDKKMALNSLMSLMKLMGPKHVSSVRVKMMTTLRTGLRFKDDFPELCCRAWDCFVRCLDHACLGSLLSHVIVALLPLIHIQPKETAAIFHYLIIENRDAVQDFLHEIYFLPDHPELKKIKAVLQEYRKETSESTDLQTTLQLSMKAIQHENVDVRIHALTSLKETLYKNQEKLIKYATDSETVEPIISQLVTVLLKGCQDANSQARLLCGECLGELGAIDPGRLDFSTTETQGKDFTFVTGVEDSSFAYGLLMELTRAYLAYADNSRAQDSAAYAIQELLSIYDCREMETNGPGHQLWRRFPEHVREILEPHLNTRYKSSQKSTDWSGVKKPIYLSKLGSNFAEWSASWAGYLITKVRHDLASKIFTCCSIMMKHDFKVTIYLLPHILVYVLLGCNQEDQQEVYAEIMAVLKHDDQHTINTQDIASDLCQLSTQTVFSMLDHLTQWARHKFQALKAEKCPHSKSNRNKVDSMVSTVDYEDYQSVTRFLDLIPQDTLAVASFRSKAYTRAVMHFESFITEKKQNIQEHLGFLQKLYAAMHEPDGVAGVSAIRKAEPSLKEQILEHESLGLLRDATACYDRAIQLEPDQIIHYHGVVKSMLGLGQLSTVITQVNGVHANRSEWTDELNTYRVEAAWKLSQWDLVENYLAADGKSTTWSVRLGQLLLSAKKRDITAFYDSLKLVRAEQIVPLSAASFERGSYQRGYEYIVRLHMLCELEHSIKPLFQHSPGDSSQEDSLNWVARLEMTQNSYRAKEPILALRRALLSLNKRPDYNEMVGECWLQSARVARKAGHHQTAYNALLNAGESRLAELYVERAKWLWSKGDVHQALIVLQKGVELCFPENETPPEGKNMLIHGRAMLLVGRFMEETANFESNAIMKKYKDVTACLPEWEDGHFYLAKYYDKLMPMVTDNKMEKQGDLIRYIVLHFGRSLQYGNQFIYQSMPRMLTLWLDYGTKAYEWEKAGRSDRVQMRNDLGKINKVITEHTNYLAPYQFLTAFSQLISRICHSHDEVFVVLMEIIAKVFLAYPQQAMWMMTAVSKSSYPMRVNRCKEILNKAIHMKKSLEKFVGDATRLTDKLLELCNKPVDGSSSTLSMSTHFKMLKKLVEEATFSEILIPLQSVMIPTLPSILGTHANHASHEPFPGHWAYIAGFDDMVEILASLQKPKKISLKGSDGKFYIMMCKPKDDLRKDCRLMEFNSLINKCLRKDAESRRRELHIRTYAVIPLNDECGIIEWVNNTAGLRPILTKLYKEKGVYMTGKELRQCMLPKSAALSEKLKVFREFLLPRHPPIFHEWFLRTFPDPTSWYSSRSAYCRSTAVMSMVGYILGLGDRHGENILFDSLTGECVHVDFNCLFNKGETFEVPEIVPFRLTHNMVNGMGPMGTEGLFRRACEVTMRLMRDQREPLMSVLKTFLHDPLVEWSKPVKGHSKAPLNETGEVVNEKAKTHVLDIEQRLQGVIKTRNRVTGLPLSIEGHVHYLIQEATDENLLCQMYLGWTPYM

- test smiles: "C[C@@H]1COCCN1c1nc(-c2cccc3[nH]ccc23)nc2c1CCN(C(=O)c1ccc(C(F)(F)F)cc1)C2(C)C"
  IC50: "> 100 nM"
- test smiles: "CC(C)(C)NS(=O)(=O)c1cncc(-c2ccn3nc(N)nc3c2)c1"
  IC50: "> 5890 nM"
- test smiles: "CC(C)n1c(=O)n(C2CCOCC2)c2c3cc(-c4cccnc4)ccc3ncc21"
  IC50: "> 27600 nM"
- test smiles: "Cn1c(=O)n(C2CCOCC2)c2c3cc(-c4ccc(OCCCN5CCCCC5)nc4)c(F)cc3ncc21"
  IC50: "> 29000 nM"
- test smiles: "COCc1ccc(-c2cc3c(cc2F)ncc2c3n([C@@H](C)C3CCOCC3)c(=O)n2C)cn1"
  IC50: "> 30000 nM"
- test smiles: "C[C@@H]1COCCN1c1nc(-c2nncc3[nH]ccc23)cc2c1ncn2C"
  IC50: "0.5 nM"
- test smiles: "C[C@@H]1Cn2ncc(-c3ccc(S(=O)(=O)N(C)C)cc3)c2CN1c1ccnc2[nH]ccc12"
  IC50: "0.5 nM"
- test smiles: "COc1ccc(C(=O)N2CCc3c(N4CCOC[C@H]4C)nc(-c4cccc5[nH]ccc45)nc3C23CCC3)cc1"
  IC50: "> 100 nM"
